Each entry below lists one item and its recorded TGI value.
Test system: KM12 colon
Assay: NCI tumour cell line growth inhibition, 48 h

Example entries begin here.
COc1ccc(OC)c(CCc2ccccc2CC(=O)O)c1: > 100 µM
O=C1C(c2ccccc2)=[N+]([O-])c2cc([N+](=O)[O-])ccc21: 47.5 µM
CCCCNP1(NCCCC)=NP(NCCCC)(NCCCC)=NP(NCCCC)(NCCCC)=NP(NCCCC)(NCCCC)=N1: 4.27 µM

What reported TGI corresponds to N#C/C(=C\c1ccccc1F)C(=O)c1ccccc1 on KM12 colon?
> 100 µM

What TGI appears in the records for this compound with KM12 colon? CC(=O)c1sc2c(c1OC(=O)c1ccccc1)c(=O)n(-c1ccccc1)c(=S)n2-c1ccccc1
92.3 µM

Reference source: PubChem BioAssay (NCI)
